Test: Half life period was determined
Format: ADME
Conditions: rat
endpoint.label: half-life (h)
Reply with just the number (in h).

Input: Identify measured half-life associated with O=P1(NCCCl)OCCC(O)N1CCCl (stereo unspecified) [ALDOIFOSFAMIDE]
Output: 1
